target: mutant CFTR (Homo sapiens, UniProt P13569, DEL508-508); construct: expressed in transfected cells; test: Fluorescence (HS-YFP) assay for CFTR activity, corrector assay; assay type: cell-based; details: CFBE41o- and FRT cells with stable expression of mutant CFTR, read-out: activity (EC50)
Sequence (P13569 with tags, fused parts or gaps DEL508-508): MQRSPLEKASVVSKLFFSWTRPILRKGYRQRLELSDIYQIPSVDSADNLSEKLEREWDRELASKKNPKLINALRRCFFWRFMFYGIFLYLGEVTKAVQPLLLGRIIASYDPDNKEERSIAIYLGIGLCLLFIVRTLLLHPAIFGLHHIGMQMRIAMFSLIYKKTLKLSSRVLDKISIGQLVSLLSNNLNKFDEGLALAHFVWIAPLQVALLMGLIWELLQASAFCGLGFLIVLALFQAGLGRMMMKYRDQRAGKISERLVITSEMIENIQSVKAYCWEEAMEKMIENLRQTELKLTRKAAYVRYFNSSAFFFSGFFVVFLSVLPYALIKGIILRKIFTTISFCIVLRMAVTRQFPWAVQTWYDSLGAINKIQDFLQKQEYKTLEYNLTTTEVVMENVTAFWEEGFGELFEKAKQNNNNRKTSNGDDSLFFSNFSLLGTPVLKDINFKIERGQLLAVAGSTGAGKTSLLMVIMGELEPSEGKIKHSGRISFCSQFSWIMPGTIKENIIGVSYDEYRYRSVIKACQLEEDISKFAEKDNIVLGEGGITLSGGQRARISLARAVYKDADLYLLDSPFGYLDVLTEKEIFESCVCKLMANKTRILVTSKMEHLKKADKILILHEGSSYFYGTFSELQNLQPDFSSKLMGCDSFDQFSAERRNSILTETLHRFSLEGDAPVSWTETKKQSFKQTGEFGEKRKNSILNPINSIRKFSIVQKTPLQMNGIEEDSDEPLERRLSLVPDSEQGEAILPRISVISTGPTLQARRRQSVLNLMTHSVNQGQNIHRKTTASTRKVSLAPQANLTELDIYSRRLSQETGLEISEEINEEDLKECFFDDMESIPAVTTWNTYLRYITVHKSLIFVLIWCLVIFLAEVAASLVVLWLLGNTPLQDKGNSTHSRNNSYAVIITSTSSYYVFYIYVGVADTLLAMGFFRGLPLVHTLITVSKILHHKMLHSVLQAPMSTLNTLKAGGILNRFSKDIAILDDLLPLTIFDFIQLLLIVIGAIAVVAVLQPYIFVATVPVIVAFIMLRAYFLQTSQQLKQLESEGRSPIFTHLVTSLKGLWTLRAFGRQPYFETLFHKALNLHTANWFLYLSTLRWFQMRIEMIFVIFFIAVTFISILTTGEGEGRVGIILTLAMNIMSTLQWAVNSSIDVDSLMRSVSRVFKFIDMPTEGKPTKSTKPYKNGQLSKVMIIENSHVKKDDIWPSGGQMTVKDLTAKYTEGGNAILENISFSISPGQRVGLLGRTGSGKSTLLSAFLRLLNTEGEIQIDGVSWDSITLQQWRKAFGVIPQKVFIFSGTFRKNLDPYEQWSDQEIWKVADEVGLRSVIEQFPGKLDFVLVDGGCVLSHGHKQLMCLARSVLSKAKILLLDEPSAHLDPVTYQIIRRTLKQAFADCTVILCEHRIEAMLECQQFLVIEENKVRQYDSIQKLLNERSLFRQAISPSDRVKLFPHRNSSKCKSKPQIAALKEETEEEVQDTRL
For each record, write down the corresponding EC50.

[
  {
    "Compound": "CN(C(=O)c1cccc(-n2nc(C(F)F)c3c2C(Oc2ccc(C(=O)O)cc2)CCC3)c1)c1ccc2c(c1)OC(F)(F)O2 (racemic) [Compound 254]",
    "EC50": "< 1 µM"
  },
  {
    "Compound": "CN(C(=O)c1cccc(-n2nc(C(F)(F)F)c3c2CCN(C[C@@H](O)CO)C3)c1)c1ccc2c(c1)OCO2 [Compound 015]",
    "EC50": "< 1 µM"
  },
  {
    "Compound": "CN(C(=O)c1cccc(-n2nc(C(F)(F)F)c3c2CCN(S(=O)(=O)c2ccc(C(=O)O)cc2)C3)c1)c1ccc2c(c1)OCO2 [Compound 057]",
    "EC50": "1 to 2 µM"
  },
  {
    "Compound": "COc1ncc(NC(=O)c2cccc(-n3nc(C(F)(F)F)c4c3CCN(C(=O)C(C)(C)C)C4)c2)cn1 [Compound 081]",
    "EC50": "> 2 µM"
  }
]

Return reported EC50 values for all items listed beneath this line.
1. CC(C)C(=O)N1CCc2c(c(C(F)(F)F)nn2-c2cccc(C(=O)N(C)c3ccc4c(c3)OCO4)c2)C1 [Compound 031]
2. Cc1nc2cc(F)c(N(C)C(=O)c3cccc(-n4nc(C(F)(F)F)c5c4CCN(S(=O)(=O)c4c(C)noc4C)C5)c3)cc2o1 [Compound 138]

< 1 µM
< 1 µM
